system: LXRa homodimer (NR concentration 270 nM); experiment: PBM binding z-score (relative to random genomic background probes); higher = stronger binding; sequences stand for … in GC…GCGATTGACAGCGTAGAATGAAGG
Below: a set of entries, each annotated with reported PBM binding z-score.
Please respond with just the number, no unit label.

Endpoint output: PBM binding z-score of TCGAGTAGGTTACGGCGGCATTCAGGGATGAAGA . Value? -0.342

Give the measured PBM binding z-score of CGAACTAGGTCAAAGGACAGTGTAAGGCGACGTA . -0.176

Endpoint output: PBM binding z-score of CCGAGTAGGTTACGAGGGTGCATTCAGTGCGAAT . Value? -0.00974
